# experimental target: HIV-1 protease (Human immunodeficiency virus type 1 group M subtype B, UniProt P04585)
# Construct: The protease (or proteinase), consisting of only 99 amino acids, is among the smallest enzymes known
# experiment notes: In vitro HIV protease inhibitory assay (HIV Protease FITC Assay)
# Type: biochemical
# measurement setup: HIV-1 Dose 0.370 uM; read-out: HIV-1 Protease % Inhib
If the reported inhibition at 0.37 µM equals or exceeds 30%, assign Y. If not, assign N.

Record excerpt, results attached:
C=CC(C1=C(O)CC(CCC)(CCc2ccccc2)OC1=O)c1ccccc1 (stereo not drawn)    Y
CCC(Cc1ccccc1Cl)c1cc(O)c(C(c2ccccc2)C2CC2)c(=O)o1 (stereo not drawn)    N
CCC(C1=C(O)CC2(CCC(=O)CC2)OC1=NO)c1ccccc1 (stereo not drawn)    N

Query: inhibition at 0.37 µM >= 30% for CCC(Cc1ccccc1)c1cc(O)c(C(c2cccc(NC(=O)[C@H](Cc3cn(S(=O)(=O)c4ccc(C)cc4)cn3)NC(=O)OC(C)(C)C)c2)C2CC2)c(=O)o1 (stereo partly drawn) ?
Result: Y

Query: In plain terms: is recorded inhibition at 0.37 µM at least 30% for CC(C)CC1(CCc2ccccc2)CC(O)=C(C(/C=C/c2ccccc2)c2ccccc2)C(=O)O1 (stereo not drawn) ?
Result: N

Query: Record CCCCC1(Cc2ccccc2)CC(O)=C(C(CC)c2ccccc2)C(=O)O1 (stereo not drawn) ; criterion: inhibition at 0.37 µM no lower than 30%. Met?
Result: N

Query: Form field: inhibition at 0.37 µM at least 30%? Entry: CCC(CC1CCCCN1S(=O)(=O)c1ccc(C)cc1)c1cc(O)c(C(c2ccccc2)C2CC2)c(=O)o1 (stereo not drawn)
Result: N

Query: Please check the record CCS(=O)(=O)Nc1cccc(C(c2c(O)cc(C(CC3CC3)CC3CCCOC3)oc2=O)C2CC2)c1 (stereo not drawn) and state if its inhibition at 0.37 µM is at or above 30%.
Result: Y

Query: State whether the measured inhibition at 0.37 µM reaches 30%, counting equality as reaching it, for CCC(CCCCl)c1cc(O)c(C(c2ccccc2)C2CC2)c(=O)o1 (stereo not drawn)
Result: Y

Query: Could you verify whether the entry CCC(c1cc(O)c(C(c2ccccc2)C2CC2)c(=O)o1)C(O)c1ccccc1 (stereo not drawn) shows inhibition at 0.37 µM of no less than 30%?
Result: Y

Query: Item O=c1oc(CC(O)c2ccco2)cc(O)c1C(c1ccccc1)C1CC1 (stereo not drawn) with inhibition at 0.37 µM of 30% or above?
Result: N

Query: Does C=CC(C1=C(O)CC2(CCCC2)OC1=O)c1ccccc1 (stereo not drawn) have a reported inhibition at 0.37 µM of at least 30%?
Result: N

Query: Hello, I need to know if C=CC(C1=C(O)CC2(CCCCCCC2)OC1=O)c1ccccc1 (stereo not drawn) has measured inhibition at 0.37 µM not below 30%. Thanks!
Result: N

Query: Does inhibition at 0.37 µM meet or surpass 30% for O=c1oc(CCc2ccc(F)cc2)cc(O)c1C(c1ccccc1)C1CC1 (stereo not drawn) ?
Result: N

Query: Threshold query (inhibition at 0.37 µM >= 30%) on CCC(Cc1ccccc1)c1cc(O)c(C(c2cccc(NS(=O)(=O)c3ccc(C(C)(C)C)cc3)c2)C2CC2)c(=O)o1 (stereo not drawn)
Result: N

Query: Quick check: does CCC(Cc1ccc(C(F)(F)F)cc1)c1cc(O)c(C(c2ccccc2)C2CC2)c(=O)o1 (stereo not drawn) have inhibition at 0.37 µM greater than or equal to 30%?
Result: N

Query: Could you please find out whether CCC(CCC1OCCCO1)c1cc(O)c(C(c2ccccc2)C2CC2)c(=O)o1 (stereo not drawn) has inhibition at 0.37 µM that meets 30% or exceeds it?
Result: N

Query: Has CC(C)CC1(CCc2ccccc2)CC(O)=C(C(c2ccccc2)c2ccccc2)C(=O)O1 (stereo not drawn) a recorded inhibition at 0.37 µM greater than or equal to 30%?
Result: N

Query: Record O=c1oc(CC(O)c2cccc(Cl)c2)cc(O)c1C(c1ccccc1)C1CC1 (stereo not drawn) ; criterion: inhibition at 0.37 µM no lower than 30%. Met?
Result: N

Query: Textbook exercise: given the entry CCC(Cc1ccc(Br)cc1)c1cc(O)c(C(c2ccccc2)C2CC2)c(=O)o1 (stereo not drawn) , state whether its inhibition at 0.37 µM is greater than or equal to 30%.
Result: Y

Query: Entry CCCS(=O)(=O)Nc1cccc(C(c2c(O)cc(C(CC)Cc3ccccc3)oc2=O)C2CC2)c1 (stereo not drawn) : is its inhibition at 0.37 µM no less than 30%?
Result: Y

Query: # check: inhibition at 0.37 µM of O=c1oc(CCCF)cc(O)c1C(c1ccccc1)C1CC1 (stereo not drawn) is greater than or equal to 30%
Result: N

Query: Entry CCC(CC1CCCN1S(=O)(=O)c1ccc(C)cc1)c1cc(O)c(C(c2ccccc2)C2CC2)c(=O)o1 (stereo not drawn) : is its inhibition at 0.37 µM no less than 30%?
Result: N

Query: Does inhibition at 0.37 µM meet or surpass 30% for CCC(CC1CC(=O)N(Cc2ccccc2)C1)c1cc(O)c(C(c2ccccc2)C2CC2)c(=O)o1 (stereo not drawn) ?
Result: N

----------
# experimental target: HIV-1 protease (Human immunodeficiency virus type 1 group M subtype B, UniProt P04585)
# Construct: The protease (or proteinase), consisting of only 99 amino acids, is among the smallest enzymes known
# experiment notes: In vitro HIV protease inhibitory assay (HIV Protease FITC Assay)
# Type: biochemical
# measurement setup: HIV-1 Dose 10.000 uM; read-out: HIV-1 Protease % Inhib
# Description: The HIV protease screening assay is based on a fluorescently labeled substrate which can be resolved from nonlabeled cleavage product using avidin-polystyrene particles, 0.7-0.9 µm. […] The labeled cleavage product is separated from the unreacted substrate via filtration and is read on the Idexx Screen Machine. The data are analyzed by appropriate computer algorithms to ascertain percent inhibition values.
Assignment: determine reported inhibition at 10 µM for the given compounds.
Provide a numeric answer, followed by its unit.

CCCCC1(Cc2ccccc2)CC(O)=C(C(C=Cc2ccccc2)c2ccccc2)C(=O)O1 (centres unmarked)    62.4%
CCCC1(Cc2ccccc2)CC(O)=C(C(CCc2ccccc2)c2ccccc2)C(=O)O1 (centres unmarked)    89.3%
CCC(Cc1ccncc1)c1cc(O)c(C(c2ccccc2)C2CC2)c(=O)o1 (centres unmarked)    98.7%
CCC(Cc1ccccc1)c1cc(O)c(C(c2cccc(NS(=O)(=O)/C=C/c3ccccc3)c2)C2CC2)c(=O)o1 (centres unmarked)    99.5%

Give one value of inhibition at 10 µM per listed compound.
1. CCC(CC1CCN(S(=O)(=O)c2ccc(C)cc2)CC1)c1cc(O)c(C(c2ccccc2)C2CC2)c(=O)o1 (centres unmarked)
2. Cc1ccc(C(O)Cc2cc(O)c(C(c3ccccc3)C3CC3)c(=O)o2)cc1 (centres unmarked)
3. CCCC1(c2ccccc2)CC(O)=C(C(CC)c2cccc(O)c2)C(=O)O1 (centres unmarked)
4. CCCC1(CCCc2ccccc2)CC(O)=C(C(C=Cc2ccccc2)c2ccccc2)C(=O)O1 (centres unmarked)

Result:
["11.2%", "78.1%", "86%", "81%"]

----------
For each of the compounds below, state its inhibition at 100 µM.
# experimental target: HIV-1 protease (Human immunodeficiency virus type 1 group M subtype B, UniProt P04585)
# Construct: The protease (or proteinase), consisting of only 99 amino acids, is among the smallest enzymes known
# experiment notes: In vitro HIV protease inhibitory assay (HIV Protease FITC Assay)
# Format: biochemical
# measurement setup: HIV-1 Dose 100.000 uM; read-out: HIV-1 Protease % Inhib
One number for each entry, in %.

Below, 4 compounds whose answers are already recorded.
CCC(CC1CCOCC1)c1cc(O)c(C(c2ccccc2)C2CC2)c(=O)o1 (stereo not shown) [Example 58]    110
CCCC(c1ccc(Br)cc1)c1c(O)cc(CCc2ccccc2)oc1=O (stereo not shown) [Example 4]    51.2
O=c1oc(CCCCc2ccccc2)cc(O)c1C(c1ccccc1)C1CC1 (stereo not shown) [Example 91]    62
CC(C)(C)c1nc(CCc2cc(O)c(C(c3ccccc3)C3CC3)c(=O)o2)no1 (stereo not shown) [Example 44]    114

Please supply inhibition at 100 µM for each of the following items, keeping them in order.
1. CCCc1oc(=O)c(C(CC)c2ccccc2)c(O)c1Br (stereo not shown) [Example 109]
2. O=c1oc(CCCCl)cc(O)c1C(c1ccccc1)C1CC1 (stereo not shown) [Example 53]
3. CCC(c1ccccc1)c1c(O)cc(Cc2ccccc2)oc1=O (stereo not shown) [Example 2]
4. CCC(Cc1ccco1)c1cc(O)c(C(c2ccccc2)C2CC2)c(=O)o1 (stereo not shown) [Example 59]
5. CCC(CCOCCOC)c1cc(O)c(C(c2ccccc2)C2CC2)c(=O)o1 (stereo not shown) [Example 106]

Result:
1. 108
2. 120
3. 74.3
4. 105
5. 119
